Reference source: patent US20100120789A1

- Target Or Test System: Human 11β-HSD1 (Homo sapiens, UniProt P28845)
- Sequence (P28845 whole entry): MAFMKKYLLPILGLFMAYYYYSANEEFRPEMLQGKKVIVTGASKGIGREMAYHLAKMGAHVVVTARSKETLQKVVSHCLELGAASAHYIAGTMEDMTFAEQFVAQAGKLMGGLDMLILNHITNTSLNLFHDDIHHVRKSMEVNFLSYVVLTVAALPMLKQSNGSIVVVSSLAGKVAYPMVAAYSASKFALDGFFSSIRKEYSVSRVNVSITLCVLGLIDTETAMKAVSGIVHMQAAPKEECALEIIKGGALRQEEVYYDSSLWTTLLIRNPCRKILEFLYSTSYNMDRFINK
- Test Name: 11β-HSD1 HEK assay (whole HEK 293 cells stably transfected with HSD11B1, SPA)
- Type: cell-based
- Set-up: expressed in transfected cells; host or cells: HEK 293
- Condition Description: HEK293; read-out: IC50 (nM) Inhibition of Human 11β-HSD1 (HEK293)
// classify: if (IC50 < 200 nM) Met else Not met

Smiles Data	Target Or Test System	Qualitative Label
CCNC(=O)c1cccc(OCC(=O)C23CC4CC(CC(C4)C2)C3)c1	Human 11β-HSD1 (Homo sapiens, UniProt P28845)	Not met
CNC(=O)c1cccc(OCC(=O)C23CC4CC(CC(C4)C2)C3)c1	Human 11β-HSD1 (Homo sapiens, UniProt P28845)	Met
CNC(=O)c1ccc(COCC(=O)C23CC4CC(CC(C4)C2)C3)cc1	Human 11β-HSD1 (Homo sapiens, UniProt P28845)	Not met
NC(=O)c1cccc(OCC(=O)C23CC4CC(CC(C4)C2)C3)c1	Human 11β-HSD1 (Homo sapiens, UniProt P28845)	Not met
NC(=O)c1ccc(OCC(=O)C23CC4CC(CC(C4)C2)C3)cc1	Human 11β-HSD1 (Homo sapiens, UniProt P28845)	Met
CC(C)NC(=O)c1cccc(OCC(=O)C23CC4CC(CC(C4)C2)C3)c1	Human 11β-HSD1 (Homo sapiens, UniProt P28845)	Not met
CNC(=O)Cc1ccc(OCC(=O)C23CC4CC(CC(C4)C2)C3)cc1	Human 11β-HSD1 (Homo sapiens, UniProt P28845)	Met
CCNC(=O)Cc1ccc(OCC(=O)C23CC4CC(CC(C4)C2)C3)cc1	Human 11β-HSD1 (Homo sapiens, UniProt P28845)	Not met

* * *

The following compounds are shown together with reported melting point values.
Property: melting point

Smiles Data	Result Value
Cc1cccc(NC(=O)CS(=O)(=O)C23CC4CC(CC(C4)C2)C3)n1	126 to 129 °C
CN(Cc1cccs1)C(=O)CSC12CC3CC(CC(C3)C1)C2	51 to 53 °C
COc1cc2c(cc1O)CCN(C(=O)C13CC4CC(CC(C4)C1)C3)C2	224 to 228 °C
O=C(NC12CC3CC(CC(C3)C1)C2)OCc1cccs1	66 to 68 °C
COc1cc2c(cc1OCc1ccccc1)CCN(C(=O)C13CC4CC(CC(C4)C1)C3)C2	144 to 145 °C

* * *

The following molecules are shown together with reported melting point values.
Property: melting point

Molecule	Property	Result Value
CN(Cc1cccs1)C(=O)C12CC3CC(CC(O)(C3)C1)C2	melting point	88 to 91 °C
O=S(=O)(Cc1cn(C23CC4CC(CC(C4)C2)C3)nn1)c1cc(Cl)ccc1Cl	melting point	198 to 199 °C
CC(C)(C)CC(=O)NCc1cccs1	melting point	83 to 84 °C
CC12CC3CC(C)(C1)CC(C(=O)NCc1cccs1)(C3)C2	melting point	101 to 103 °C
CCCc1ccc(S(=O)(=O)NCC23CC4CC(CC(C4)C2)C3)cc1	melting point	148 to 149 °C
CC(=O)Nc1ccc(OCC(=O)C23CC4CC(CC(C4)C2)C3)cc1Cl	melting point	204 to 206 °C
O=C(CC12CC3CC(CC(C3)C1)C2)NCc1ccc(Cl)cc1	melting point	166 to 168 °C
CC1(C(=O)NCc2cccs2)CCCCC1	melting point	72 to 73 °C
Cc1nc2cc(NCC(=O)C3(C)CC3)ccc2s1	melting point	116 to 120 °C
O=C(C[S+]([O-])Cc1cccs1)C12CC3CC(CC(C3)C1)C2 (centres unmarked)	melting point	95 to 98 °C
O=S(=O)(NC12CC3CC(CC(C3)C1)C2)c1cccs1	melting point	129 to 131 °C
